# tested.on: UniProtKB Q15391
# protocol.notes: Displacement of fluorescent tracer 4-(4-(1-(4-(1-(6-(3-carboxylato-4-(3-iminio-3H-xanthen-9-yl)benzamido)hexyl)-4,5-dihydro-1H-pyrrol-3-yl)butyl)piperidin-1-ium-4-yl)phenyl)-7-(4-(trifluoromethyl)phenyl)-2-naphthoate from human P2Y14R stably expressed in CHO cells by flow cytometry
quantity.name: pIC50
FYI, pIC50 means -log10 of a concentration in mol per litre.

CC(C)(C)OC(=O)NCCCCCCn1cc(CCCCN2CCC(c3ccc(-c4cc(C(=O)O)cc5cc(-c6ccc(C(F)(F)F)cc6)ccc45)cc3)CC2)nn1 = 6.37
O=C(O)c1cc(-c2ccc(/C3=C/CCNCCC3)cc2)c2ccc(-c3ccc(C(F)(F)F)cc3)cc2c1 = 7.23
O=C(O)c1cc(-c2ccc([C@@H]3[C@@H]4CNC[C@H]3C4)cc2)c2ccc(-c3ccc(C(F)(F)F)cc3)cc2c1 = 6.28

Could you now consider this next molecule?
For the record "O=C(O)c1cc(-c2ccc(C3CCCNCCC3)cc2)c2ccc(-c3ccc(C(F)(F)F)cc3)cc2c1" , what value of pIC50 is listed for UniProtKB Q15391?
7.73

----------
# tested.on: P2Y purinoceptor 14 (Homo sapiens, UniProt Q15391)
# Sequence (Q15391 whole entry): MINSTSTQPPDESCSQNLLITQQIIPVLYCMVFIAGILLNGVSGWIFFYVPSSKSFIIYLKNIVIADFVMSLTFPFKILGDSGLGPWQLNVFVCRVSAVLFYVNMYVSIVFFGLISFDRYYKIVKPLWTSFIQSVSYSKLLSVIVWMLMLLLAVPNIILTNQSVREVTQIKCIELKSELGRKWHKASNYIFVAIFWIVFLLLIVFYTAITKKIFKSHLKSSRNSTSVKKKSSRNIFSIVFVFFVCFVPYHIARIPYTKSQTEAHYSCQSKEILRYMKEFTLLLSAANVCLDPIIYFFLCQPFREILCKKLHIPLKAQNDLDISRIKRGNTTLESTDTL
In this section, each of the compounds is paired with its reported log10(Ki).
For clarity, the numbers are log10 values of Ki expressed in nM.

O=C(O)c1cc(-c2ccc([C@@H]3[C@@H]4CNC[C@H]3C4)cc2)c2ccc(-c3ccc(C(F)(F)F)cc3)cc2c1 = 2.48
O=C(O)c1cc(-c2ccc(C3(O)CC4(CNC4)C3)cc2)c2ccc(-c3ccc(C(F)(F)F)cc3)cc2c1 = 1.08
C[Si]1(C)C2=CC(=[N+]3CCC3)C=CC2=C(c2cc(C(=O)NCCCCCCn3cc(CCCCN4CCC(c5ccc(-c6cc(C(=O)O)cc7cc(-c8ccc(C(F)(F)F)cc8)ccc67)cc5)CC4)nn3)ccc2C(=O)[O-])c2ccc(N3CCC3)cc21 = 3.97
COC1(c2ccc(-c3cc(C(=O)O)cc4cc(-c5ccc(C(F)(F)F)cc5)ccc34)cc2)CC2(CNC2)C1 = 1.43

Requested read-out: log10(Ki). Entry: "CCOC(=O)N1C[C@H]2C[C@@H](C1)[C@@]2(O)c1ccc(-c2cc(C(=O)O)cc3cc(-c4ccc(C(F)(F)F)cc4)ccc23)cc1"
1.68

Requested read-out: log10(Ki). Entry: O=C(O)c1cc(-c2ccc(C3=C[C@H]4CNC[C@@H]4C3)cc2)c2ccc(-c3ccc(C(F)(F)F)cc3)cc2c1 (racemic)
0.98

Requested read-out: log10(Ki). Entry: "CC(C)(C)OC(=O)NCCCCCCn1cc(CCCCN2CCC(c3ccc(-c4cc(C(=O)O)cc5cc(-c6ccc(C(F)(F)F)cc6)ccc45)cc3)CC2)nn1"
2.39

Requested read-out: log10(Ki). Entry: "O=C(O)c1cc(-c2ccc(C3CNC3)cc2)c2ccc(-c3ccc(C(F)(F)F)cc3)cc2c1"
1.58

Requested read-out: log10(Ki). Entry: "O=C(O)c1cc(-c2ccc(C3=CC4(CNC4)C3)cc2)c2ccc(-c3ccc(C(F)(F)F)cc3)cc2c1"
0.75

----------
# tested.on: P2Y purinoceptor 14 (Homo sapiens, UniProt Q15391)
# protocol.notes: Displacement of fluorescent tracer 4-(4-(1-(4-(1-(6-(3-carboxylato-4-(3-iminio-3H-xanthen-9-yl)benzamido)hexyl)-4,5-dihydro-1H-pyrrol-3-yl)butyl)piperidin-1-ium-4-yl)phenyl)-7-(4-(trifluoromethyl)phenyl)-2-naphthoate from human P2Y14R stably expressed in CHO cells by flow cytometry
quantity.name: IC50 (nM)
I only need the number, in nM, no unit after it.

Here is how some compounds turned out for IC50.
CN(C)C(=O)COC(=O)c1cc(-c2ccc([C@]3(O)[C@@H]4CNC[C@H]3C4)cc2)c2ccc(-c3ccc(C(F)(F)F)cc3)cc2c1 = 4810
NCCCCCCn1cc(CCCCN2CCC(c3ccc(-c4cc(C(=O)O)cc5cc(-c6ccc(C(F)(F)F)cc6)ccc45)cc3)CC2)nn1 = 116

Could you now consider this next compound?
For the record "O=C(O)c1cc(-c2ccc([C@]3(O)[C@@H]4CNC[C@H]3C4)cc2)c2ccc(-c3ccc(C(F)(F)F)cc3)cc2c1" , what value of IC50 is listed for P2Y purinoceptor 14 (Homo sapiens, UniProt Q15391)?
5.92
